Entry source: the RNAGym collection of RNA variant scans (doi:10.1093/nar/gkz1192)

For each entry below, report its self-cleavage value.
B1: CPEB3 Ribozyme (parent)
chain: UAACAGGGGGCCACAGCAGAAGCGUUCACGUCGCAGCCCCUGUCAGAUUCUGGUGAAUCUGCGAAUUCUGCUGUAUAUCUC

- Variants of: B1
- experiment: self-cleavage, relative activity (ratio to wild type); higher = more cleavage; in vitro, sequencing
Answer with a number only.

stdin: I am curious: what self-cleavage value has been reported for C14U A15U ?
stdout: 1.07

stdin: I am curious: what self-cleavage value has been reported for G30A G63U ?
stdout: 0.13

stdin: I am curious: what self-cleavage value has been reported for C11G C34G ?
stdout: 0.38

stdin: I am curious: what self-cleavage value has been reported for U1G U69A ?
stdout: 0.65

stdin: I am curious: what self-cleavage value has been reported for A28G A64G ?
stdout: 0.46

stdin: I am curious: what self-cleavage value has been reported for A5U A57G ?
stdout: 0.97

stdin: I am curious: what self-cleavage value has been reported for G16A U25C ?
stdout: 0.18

stdin: I am curious: what self-cleavage value has been reported for C23U G24A ?
stdout: 0.22
